Assay: Metabolic stability in human liver microsomes assessed as intrinsic clearance at 1 uM preincubated for 10 mins followed by NADPH addition and measured for 60 mins by LC-MS/MS analysis
Format: ADME, Microsome
Settings: read-out: CLH
Here, each record is paired with measured CLint scaled at 1 µM data.
measured attribute: CLint scaled at 1 µM

> print(dat)
                         chemical.structure    measured.attribute  measured.result
1  Cc1n[nH]c2ccc(-c3nnc4n3[C@H](c3ccc(Cl)cc3)CC4)nc12  CLint scaled at 1 µM  < 8.6 mL/min/kg
2  Cc1n[nH]c2ccc(-c3nnc(C)n3Cc3ccc(C(F)(F)F)cc3)cc12  CLint scaled at 1 µM  < 8.6 mL/min/kg
3  Cc1n[nH]c2ccc(-c3nnc(C)n3Cc3ccc(Cl)cc3)cc12  CLint scaled at 1 µM   12.2 mL/min/kg
4  Cc1n[nH]c2ncc(-c3nnc4n3[C@H](c3ccc(Cl)cc3)CC4)cc12  CLint scaled at 1 µM  < 8.6 mL/min/kg

* * *

Target: CDK8/Cyclin C (Homo sapiens, UniProt P49336)
Sequence (P49336 whole entry): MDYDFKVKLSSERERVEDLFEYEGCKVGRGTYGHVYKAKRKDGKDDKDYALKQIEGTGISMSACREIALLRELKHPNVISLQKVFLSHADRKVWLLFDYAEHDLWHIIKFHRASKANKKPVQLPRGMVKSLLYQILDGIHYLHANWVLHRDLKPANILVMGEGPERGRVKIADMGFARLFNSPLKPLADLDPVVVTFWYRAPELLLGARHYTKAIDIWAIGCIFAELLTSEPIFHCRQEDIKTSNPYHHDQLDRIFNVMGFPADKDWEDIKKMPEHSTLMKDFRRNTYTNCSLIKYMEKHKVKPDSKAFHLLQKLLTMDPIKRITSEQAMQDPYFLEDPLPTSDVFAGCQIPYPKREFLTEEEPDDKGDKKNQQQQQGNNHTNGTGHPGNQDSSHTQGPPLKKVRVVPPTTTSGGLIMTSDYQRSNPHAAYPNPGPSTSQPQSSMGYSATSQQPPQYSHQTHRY
Sequence (P24863 whole entry, further chain): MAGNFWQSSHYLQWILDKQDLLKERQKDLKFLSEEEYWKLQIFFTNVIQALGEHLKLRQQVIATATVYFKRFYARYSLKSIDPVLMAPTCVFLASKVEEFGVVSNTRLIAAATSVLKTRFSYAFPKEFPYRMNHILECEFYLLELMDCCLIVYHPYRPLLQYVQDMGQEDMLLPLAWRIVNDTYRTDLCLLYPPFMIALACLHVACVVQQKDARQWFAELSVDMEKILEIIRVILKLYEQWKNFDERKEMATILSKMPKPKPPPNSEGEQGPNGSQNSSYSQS
Assay: Inhibition of His tagged human recombinant CDK8/Cyclin C expressed in baculovirus expression system incubated for 15 mins by FRET-based LanthaScreen binding competition assay
For each record, check the reported IC50: if it is below 10 nM write YES, else write NO.

> print(dat)
                                    compound                     target.or.test.system  label
 1  Cc1n[nH]c2ccc(-c3nnc(O)n3Cc3ccc(Cl)cc3)cc12  CDK8/Cyclin C (Homo sapiens, UniProt P49336)     NO
 2  CNc1n[nH]c2ccc(-c3nnc4n3C(c3ccc(Cl)cc3)CC4)cc12 (racemic)  CDK8/Cyclin C (Homo sapiens, UniProt P49336)    YES
 3  Cc1n[nH]c2ccc(-c3nnc4n3[C@H](c3ccc(Cl)cc3)COC4)cc12  CDK8/Cyclin C (Homo sapiens, UniProt P49336)    YES
 4  Cc1n[nH]c2ccc(-c3nnc4n3[C@H](c3ccc(Cl)cc3)CNC4)cc12  CDK8/Cyclin C (Homo sapiens, UniProt P49336)    YES
 5  Cc1n[nH]c2ccc(-c3nnc(C(F)(F)F)n3Cc3ccc(Cl)cc3)cc12  CDK8/Cyclin C (Homo sapiens, UniProt P49336)    YES
 6  Cc1n[nH]c2ccc(-c3nnc(C)n3C(C)c3ccc(Cl)cc3)cc12 (stereo unspecified)  CDK8/Cyclin C (Homo sapiens, UniProt P49336)     NO
 7  Cc1c(Br)c(Br)c2c3c1nc(N1CCNCC1)n3CCC2 [SEL-120 FREE BASE]  CDK8/Cyclin C (Homo sapiens, UniProt P49336)     NO
 8  Cc1nnc(-c2ccc3[nH]nc(Cl)c3c2)n1Cc1ccc(Cl)cc1  CDK8/Cyclin C (Homo sapiens, UniProt P49336)    YES
 9  Cc1n[nH]c2ccc(-c3nnc(C)n3Cc3ccc(Cl)cn3)cc12  CDK8/Cyclin C (Homo sapiens, UniProt P49336)     NO
10  CNc1n[nH]c2ncc(-c3nnc4n3C(c3ccc(Cl)cc3)CC4)cc12 (racemic)  CDK8/Cyclin C (Homo sapiens, UniProt P49336)     NO
11  Cc1n[nH]c2ccc(-c3nnc4n3[C@H](c3ccc(Cl)cc3)CC4)nc12  CDK8/Cyclin C (Homo sapiens, UniProt P49336)    YES

* * *

Reported values of CLint scaled at 1 µM for individual entries
Assay: Metabolic stability in mouse liver microsomes assessed as intrinsic clearance at 1 uM preincubated for 10 mins followed by NADPH addition and measured for 60 mins by LC-MS/MS analysis
Type: ADME, Microsome
Details: read-out: CLH
measured attribute: CLint scaled at 1 µM (mL/min/kg)

> print(dat)
                         chemical.structure  measured.result
1  Cc1n[nH]c2ccc(-c3nnc4n3[C@H](c3ccc(Cl)cc3)CC4)nc12              339
2  Cc1n[nH]c2ccc(-c3nnc4n3[C@H](c3ccc(Cl)cc3)CC4)cc12              540
3  Cc1n[nH]c2ccc(-c3nnc4n3[C@H](c3ccc(Cl)cc3)CCC4)cc12              843
4  Cc1n[nH]c2ccc(-c3nnc(C)n3Cc3ccc(Cl)cc3)cc12              342
5  Cc1n[nH]c2ccc(-c3nnn(C)c3Cc3ccc(Cl)cc3)cc12              823

* * *

Experiment: Bioavailability in CD-1 mouse at 5 mg/kg, po or 1 mg/kg, iv administered as single dose and measured for 24 hrs by LC-MS/MS analysis
Type: ADME, organism-based
Conditions: in vivo
measured attribute: bioavailability

> print(dat)
                         chemical.structure  measured.attribute  measured.result
1  Cc1n[nH]c2ccc(-c3nnc(C)n3Cc3ccc(C(F)(F)F)cc3)cc12     bioavailability            87.4%
2  Cc1n[nH]c2ccc(-c3nnc4n3[C@H](c3ccc(Cl)cc3)COC4)cc12     bioavailability            19.4%
3  Cc1n[nH]c2ccc(-c3nnc(C)n3Cc3ccc(Cl)cc3)cc12     bioavailability            82.1%

The measured values listed here are drawn from ChEMBL document CHEMBL5380857.
